// refractive index lookup, one value per entry
# measurement description: refractive index (Na D-line) (dimensionless)
# experimental setup: 308.15 K; 101.33 kPa; Liquid
I only need the number, thanks.

// solved cases for refractive index follow
CCOC(=O)C(=O)OCC [diethyl ethanedioate] | 1.4034
CCOC(=O)CC(C)=O [ethyl 3-oxobutanoate] | 1.412
CCCCCCCCOC(=O)c1ccccc1C(=O)OCCCCCCCC [dioctyl 1,2-benzenedicarboxylate] | 1.481
CCOC(=O)c1ccccc1C(=O)OCC [diethyl phthalate] | 1.4958

Shift focus to the following entry.
Lookup: Quickly give me recorded refractive index for C1COCCO1 [1,4-dioxane]
Found: 1.4144

###

// speed of sound lookup, one value per entry
# experimental setup: 298.15 K; 101.33 kPa; Liquid
Give the value, in units of m/s, as a plain number.

// solved cases for speed of sound follow
CCOC(=O)c1ccccc1C(=O)OCC [diethyl phthalate] | 1446
CCOC(=O)CC(C)=O [ethyl 3-oxobutanoate] | 1331
CCCCCCCCOC(=O)c1ccccc1C(=O)OCCCCCCCC [dioctyl 1,2-benzenedicarboxylate] | 1421

Shift focus to the following entry.
Lookup: Quickly give me recorded speed of sound for CCOC(=O)C(=O)OCC [diethyl ethanedioate]
Found: 1276

###

# experimental setup: 298.15 K; 101.33 kPa; Liquid
Numbers after ± are expanded uncertainties.
// mass density lookup, one value per entry
Lab note: write values as number then unit, every time.

// solved cases for mass density follow
CCOC(=O)C(=O)OCC [diethyl ethanedioate] | 1072.9 ± 1.1 kg/m3
CCCCCCCCOC(=O)c1ccccc1C(=O)OCCCCCCCC [dioctyl 1,2-benzenedicarboxylate] | 980.7 ± 1 kg/m3
C1COCCO1 [1,4-dioxane] | 1027.6 ± 1.1 kg/m3
CCOC(=O)CC(C)=O [ethyl 3-oxobutanoate] | 1020.9 ± 1.1 kg/m3

Shift focus to the following entry.
Lookup: Quickly give me recorded mass density for CCOC(=O)c1ccccc1C(=O)OCC [diethyl phthalate]
Found: 1115.1 ± 2.1 kg/m3

###

# measurement description: refractive index (Na D-line) (dimensionless)
# experimental setup: 298.15 K; 101.33 kPa; Liquid
// refractive index lookup, one value per entry
I only need the number, thanks.

Lookup: Quickly give me recorded refractive index for CCCCCCCCOC(=O)c1ccccc1C(=O)OCCCCCCCC [dioctyl 1,2-benzenedicarboxylate]
Found: 1.485

Lookup: Quickly give me recorded refractive index for CCOC(=O)C(=O)OCC [diethyl ethanedioate]
Found: 1.4084

Lookup: Quickly give me recorded refractive index for CCOC(=O)c1ccccc1C(=O)OCC [diethyl phthalate]
Found: 1.5001

Lookup: Quickly give me recorded refractive index for CCOC(=O)CC(C)=O [ethyl 3-oxobutanoate]
Found: 1.4166

###

# experimental setup: 298.15 K; 101.33 kPa; Liquid
// viscosity lookup, one value per entry
Give the value, in units of mPa·s, as a plain number.

// solved cases for viscosity follow
CCCCCCCCOC(=O)c1ccccc1C(=O)OCCCCCCCC [dioctyl 1,2-benzenedicarboxylate] | 43.03
CCOC(=O)CC(C)=O [ethyl 3-oxobutanoate] | 1.48
CCOC(=O)C(=O)OCC [diethyl ethanedioate] | 1.759

Shift focus to the following entry.
Lookup: Quickly give me recorded viscosity for CCOC(=O)c1ccccc1C(=O)OCC [diethyl phthalate]
Found: 7.926

###

# experimental setup: 303.15 K; 101.33 kPa; Liquid
// mass density lookup, one value per entry
Give the value, in units of kg/m3, as a plain number.

// solved cases for mass density follow
CCCCCCCCOC(=O)c1ccccc1C(=O)OCCCCCCCC [dioctyl 1,2-benzenedicarboxylate] | 977.1
C1COCCO1 | 1021.9
CCOC(=O)c1ccccc1C(=O)OCC [diethyl phthalate] | 1110.2
CCOC(=O)C(=O)OCC [diethyl ethanedioate] | 1066.2

Shift focus to the following entry.
Lookup: Quickly give me recorded mass density for CCOC(=O)CC(C)=O [ethyl 3-oxobutanoate]
Found: 1014.9
